# System: T. cruzi epimastigotes
# METHOD: T. cruzi epimastigote drug sensitivity assay (resazurin)
# Type: cell-based, Trypanosoma cruzi
# SETUP CONDITIONS: Trypanosoma cruzi, WT; Fig. S3B, one biological replicate
# Method: To examine the effects of test compounds on the growth of T. cruzi epimastigotes, mid-log-phase parasites were seeded into 96-well plates at a cell density of 5 × 10^5 cells ml^−1. Cells were exposed to test compounds over a range of concentrations (2-fold serial dilutions). Cells were incubated for 4 days, and then 20 μl of 2.5 mM resazurin was added to each well, before measuring the fluorescence (excitation, 528 nm; emission, 590 nm), following a further 24 h of incubation. […]
PROPERTY MEASURED: pEC50
Just the number, please; pEC50 means minus log10 of the concentration in mol/L.

Given item CCC(C)NC(=O)c1ccccc1NS(=O)(=O)c1ccc2ccccc2c1 (stereo not shown) [ATR-073] , the value recorded as its pEC50 is 4.31

====

# Tested on: T. cruzi epimastigotes
# METHOD: T. cruzi epimastigote drug sensitivity assay (resazurin)
# Assay type: cell-based, Trypanosoma cruzi
# SETUP CONDITIONS: Trypanosoma cruzi, read-out: Mean EC50 ± SD, cell line β5 D225N-OE (overexpressing mutated β5)
PROPERTY MEASURED: EC50

Query O=C(Nc1ccc(F)c(-c2cn3nc(-c4ccccc4)cnc3n2)c1)N1CCCC1 yields EC50 of 2 µM

Quick note, EC50 for Cc1nc(C)c(C(=O)Nc2ccc(F)c(-c3nc4ncc(-c5ccccn5)cn4n3)c2)o1 landed at > 10 µM

# EC50 of COc1ccc(NS(=O)(=O)c2cc(-c3cc(C)n[nH]3)ccc2C)cc1OC = 27 µM

====

# Tested on: L. donovani promastigotes
# METHOD: L. donovani promastigote drug sensitivity assay
# Assay type: cell-based, Leishmania donovani
# SETUP CONDITIONS: Leishmania donovani; L. donovani cell line Wild-type; read-out: Compound 1 EC50 values
# Experimental: L. donovani promastigote ([35]), axenic amastigote ([25]), and T. brucei bloodstream form ([36]) drug sensitivity assays were carried out as previously described. HepG2 monolayers were washed twice in PBS, detached with 0.05% trypsin/EDTA, and then diluted with fully supplemented MEM growth medium. […] After incubation, resazurin (20 μl of a 2.5-mg/ml^−1 stock solution) was added to each well, followed by incubation for a further 2 h prior to fluorescence being read as described above.
PROPERTY MEASURED: EC50 (nM)
Numeric answer only, unit nM assumed.

EC50 reported for this molecule COc1ccc(NS(=O)(=O)c2cc(-c3cc(C)n[nH]3)ccc2C)cc1OC [Compound 1] : 100
